Target: Human cGAS amino acids 155-522 (Homo sapiens (Human))
Sequence (Q8N884 157-522): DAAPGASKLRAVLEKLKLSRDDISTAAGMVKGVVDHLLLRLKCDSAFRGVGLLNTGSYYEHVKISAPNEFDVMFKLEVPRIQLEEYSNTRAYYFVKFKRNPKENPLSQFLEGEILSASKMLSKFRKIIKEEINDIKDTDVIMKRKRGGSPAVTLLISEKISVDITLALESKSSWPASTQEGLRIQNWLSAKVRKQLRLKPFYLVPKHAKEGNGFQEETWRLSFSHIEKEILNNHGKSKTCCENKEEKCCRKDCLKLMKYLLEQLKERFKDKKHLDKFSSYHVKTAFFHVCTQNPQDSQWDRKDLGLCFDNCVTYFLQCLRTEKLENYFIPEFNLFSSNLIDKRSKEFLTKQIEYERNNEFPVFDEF
Test: cGAS biochemical activity assay (ATP remaining, Kinase-Glo Max luminescence)
Details: human cGAS 155-522, ATP remaining (Kinase-Glo Max); read-out: cGAS IC50
measurement-kind: IC50

Record excerpt, results attached:
# record-smiles, IC50
rows = [
    ("Cc1[nH]c2c(-c3ccccc3)c(C#N)nn2c(=O)c1-c1nnc(C2CCCCC2)o1", "< 20 µM"),
    ("COc1cccc2c1nc(-c1c(C)[nH]c3c(-c4ccccc4)c(C(F)(F)F)nn3c1=O)n2CCO", "20 to 250 µM"),
]

Okay, now this molecule:
q: Recorded IC50 for `Cc1[nH]c2c(-c3ccccc3)c(C(F)(F)F)nn2c(=O)c1-c1nc2c(OCC(N)=O)cccc2o1` , please?
a: < 20 µM
